molecular target: HIV-1 Env of pseudovirus isolate MGRM-G-025 (subtype G) (HIV-1); experiment: cell-based or functional assay
value type: IC50

Output IC50 of PGT-136 (antibody, V domains shown) VH: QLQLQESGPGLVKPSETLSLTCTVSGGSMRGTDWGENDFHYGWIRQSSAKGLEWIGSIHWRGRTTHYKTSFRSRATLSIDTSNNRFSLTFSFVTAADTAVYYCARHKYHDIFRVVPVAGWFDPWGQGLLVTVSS VL: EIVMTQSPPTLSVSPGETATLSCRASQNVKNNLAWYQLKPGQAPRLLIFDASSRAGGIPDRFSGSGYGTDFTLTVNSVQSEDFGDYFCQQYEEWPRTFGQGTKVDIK
> 50 µg/mL

Output IC50 of PGT-137 (antibody, V domains shown) VH: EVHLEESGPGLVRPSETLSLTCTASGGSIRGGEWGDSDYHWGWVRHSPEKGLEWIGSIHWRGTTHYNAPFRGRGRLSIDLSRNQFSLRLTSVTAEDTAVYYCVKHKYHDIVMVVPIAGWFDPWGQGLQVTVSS VL: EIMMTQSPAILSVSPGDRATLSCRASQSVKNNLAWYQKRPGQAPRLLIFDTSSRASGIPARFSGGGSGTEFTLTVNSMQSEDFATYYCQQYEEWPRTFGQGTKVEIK
> 50 µg/mL

Output IC50 of PGT-130 (antibody, V domains shown) VH: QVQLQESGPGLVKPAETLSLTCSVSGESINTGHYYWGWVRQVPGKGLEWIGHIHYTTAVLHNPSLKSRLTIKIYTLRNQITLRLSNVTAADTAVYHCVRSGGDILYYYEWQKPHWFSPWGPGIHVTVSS VL: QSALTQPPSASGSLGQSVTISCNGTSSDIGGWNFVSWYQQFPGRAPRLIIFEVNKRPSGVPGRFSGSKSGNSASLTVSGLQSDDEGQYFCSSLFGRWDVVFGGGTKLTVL
8.45 µg/mL
